Target protein (sequence): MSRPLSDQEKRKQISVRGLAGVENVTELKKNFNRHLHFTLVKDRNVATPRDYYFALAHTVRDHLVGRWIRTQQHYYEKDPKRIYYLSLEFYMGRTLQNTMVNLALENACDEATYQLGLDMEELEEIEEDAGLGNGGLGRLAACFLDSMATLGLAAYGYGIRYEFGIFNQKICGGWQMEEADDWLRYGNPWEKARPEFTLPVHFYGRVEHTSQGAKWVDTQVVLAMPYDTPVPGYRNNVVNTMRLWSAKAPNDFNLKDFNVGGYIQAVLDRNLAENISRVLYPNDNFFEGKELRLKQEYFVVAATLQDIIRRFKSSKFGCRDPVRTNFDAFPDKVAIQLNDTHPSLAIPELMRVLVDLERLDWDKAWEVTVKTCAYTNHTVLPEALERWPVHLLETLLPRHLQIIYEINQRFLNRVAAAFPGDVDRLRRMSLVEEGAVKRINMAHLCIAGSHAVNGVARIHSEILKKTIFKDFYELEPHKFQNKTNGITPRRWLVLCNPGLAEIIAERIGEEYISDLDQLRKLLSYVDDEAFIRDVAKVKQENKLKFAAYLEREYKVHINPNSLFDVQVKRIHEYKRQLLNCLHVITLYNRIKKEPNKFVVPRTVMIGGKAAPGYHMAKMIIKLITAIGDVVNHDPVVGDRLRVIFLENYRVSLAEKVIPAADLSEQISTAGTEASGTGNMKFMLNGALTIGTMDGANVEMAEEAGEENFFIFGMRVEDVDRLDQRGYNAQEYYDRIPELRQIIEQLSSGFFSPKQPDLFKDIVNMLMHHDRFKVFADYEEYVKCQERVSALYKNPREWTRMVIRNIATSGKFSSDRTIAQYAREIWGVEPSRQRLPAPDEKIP
Measurement kind: IC50

>>> reported_result("OC[C@H]1O[C@@H](c2nc(-c3ccc4c(c3)OCO4)no2)[C@H](O)[C@@H](O)[C@@H]1O")
"> 625 µM"

###

# Assayed system: Glycogen phosphorylase, muscle form (Oryctolagus cuniculus)
# Sequence (whole entry): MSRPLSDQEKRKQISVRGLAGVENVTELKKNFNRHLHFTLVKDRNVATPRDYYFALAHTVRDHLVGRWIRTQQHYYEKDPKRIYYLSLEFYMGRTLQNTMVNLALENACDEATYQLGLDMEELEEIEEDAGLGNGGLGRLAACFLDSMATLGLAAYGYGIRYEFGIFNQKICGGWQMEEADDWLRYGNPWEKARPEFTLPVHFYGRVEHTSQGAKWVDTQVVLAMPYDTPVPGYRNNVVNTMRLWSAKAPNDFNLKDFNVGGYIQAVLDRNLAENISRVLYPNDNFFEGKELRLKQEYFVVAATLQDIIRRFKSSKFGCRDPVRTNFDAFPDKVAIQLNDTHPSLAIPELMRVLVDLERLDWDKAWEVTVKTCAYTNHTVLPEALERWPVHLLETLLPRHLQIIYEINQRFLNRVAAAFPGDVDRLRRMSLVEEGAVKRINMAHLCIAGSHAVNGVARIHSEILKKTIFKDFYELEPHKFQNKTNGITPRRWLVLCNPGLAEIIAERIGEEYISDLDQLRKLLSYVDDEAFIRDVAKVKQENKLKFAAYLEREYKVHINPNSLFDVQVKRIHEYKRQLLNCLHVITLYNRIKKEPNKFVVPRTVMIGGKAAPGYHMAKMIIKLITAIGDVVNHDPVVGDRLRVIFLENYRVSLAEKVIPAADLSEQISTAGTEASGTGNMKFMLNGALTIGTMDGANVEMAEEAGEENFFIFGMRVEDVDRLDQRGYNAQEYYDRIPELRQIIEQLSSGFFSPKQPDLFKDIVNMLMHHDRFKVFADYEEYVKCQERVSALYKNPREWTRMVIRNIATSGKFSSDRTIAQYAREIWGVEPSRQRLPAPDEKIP
# Assay notes: Inhibition of rabbit muscle glycogen phosphorylase b at 625 uM
Active and inactive are the calls of the source. The calls are words filed in the database; no cut-off is given here.
Measurement kind: inhibition

>>> reported_result("O=[N+]([O-])c1ccc(-c2nnc([C@@H]3O[C@H](CO)[C@@H](O)[C@H](O)[C@H]3O)o2)cc1")
"inactive"
>>> reported_result("OC[C@H]1O[C@@H](c2noc(-c3ccccc3)n2)[C@H](O)[C@@H](O)[C@@H]1O")
"10%"
>>> reported_result("OC[C@H]1O[C@@H](c2nc(-c3ccc(OCc4ccccc4)cc3)no2)[C@H](O)[C@@H](O)[C@@H]1O")
"inactive"
>>> reported_result("OC[C@H]1O[C@@H](c2nnc(-c3ccccc3)o2)[C@H](O)[C@@H](O)[C@@H]1O")
"10%"
>>> reported_result("OC[C@H]1O[C@@H](c2noc(-c3cccc4ccccc34)n2)[C@H](O)[C@@H](O)[C@@H]1O")
"inactive"
>>> reported_result("Nc1ccc(-c2nnc([C@@H]3O[C@H](CO)[C@@H](O)[C@H](O)[C@H]3O)o2)cc1")
"inactive"
>>> reported_result("OC[C@H]1O[C@@H](c2nnc(-c3cccc4ccccc34)o2)[C@H](O)[C@@H](O)[C@@H]1O")
"10%"
>>> reported_result("OC[C@H]1O[C@@H](c2nnc(-c3ccc(O)cc3)o2)[C@H](O)[C@@H](O)[C@@H]1O")
"inactive"
>>> reported_result("Nc1ccc(-c2noc([C@@H]3O[C@H](CO)[C@@H](O)[C@H](O)[C@H]3O)n2)cc1")
"20%"
>>> reported_result("Cc1ccc(-c2nnc([C@@H]3O[C@H](CO)[C@@H](O)[C@H](O)[C@H]3O)o2)cc1")
"inactive"
>>> reported_result("Cc1nc([C@@H]2O[C@H](CO)[C@@H](O)[C@H](O)[C@H]2O)no1")
"inactive"
>>> reported_result("COc1ccc(-c2nnc([C@@H]3O[C@H](CO)[C@@H](O)[C@H](O)[C@H]3O)o2)cc1")
"inactive"
>>> reported_result("OC[C@H]1O[C@@H](c2nnc(-c3ccc4ccccc4c3)o2)[C@H](O)[C@@H](O)[C@@H]1O")
"10%"
>>> reported_result("O=[N+]([O-])c1ccc(-c2nc([C@@H]3O[C@H](CO)[C@@H](O)[C@H](O)[C@H]3O)no2)cc1")
"inactive"

###

Read-out record for UniProt P00489: Ki
Measurement kind: Ki (µM)

>>> reported_result("O=C(NC(=O)c1cccc2ccccc12)N[C@@H]1O[C@H](CO)[C@@H](O)[C@H](O)[C@H]1O")
15
>>> reported_result("COc1ccc(-c2noc([C@@H]3O[C@H](CO)[C@@H](O)[C@H](O)[C@H]3O)n2)cc1")
20.4
>>> reported_result("Nc1ccc(C(=O)NC(=O)N[C@@H]2O[C@H](CO)[C@@H](O)[C@H](O)[C@H]2O)cc1")
6
>>> reported_result("Cc1nnc(C2O[C@H](CO)[C@@H](O)[C@H](O)[C@H]2O)o1 (single isomer, unassigned)")
145
>>> reported_result("OC[C@H]1O[C@@H](c2nc3ccccc3s2)[C@H](O)[C@@H](O)[C@@H]1O")
76
>>> reported_result("OC[C@H]1O[C@@H](c2nc(-c3ccc(O)cc3)no2)[C@H](O)[C@@H](O)[C@@H]1O")
19.4
>>> reported_result("Cc1ccc(-c2noc([C@@H]3O[C@H](CO)[C@@H](O)[C@H](O)[C@H]3O)n2)cc1")
8.8
>>> reported_result("OC[C@H]1O[C@@H](c2nc(-c3ccc4ccccc4c3)no2)[C@H](O)[C@@H](O)[C@@H]1O")
2.4
>>> reported_result("O=C(NC(=O)c1ccc([N+](=O)[O-])cc1)N[C@@H]1O[C@H](CO)[C@@H](O)[C@H](O)[C@H]1O")
3.3
>>> reported_result("Cc1ccc(C(=O)NC(=O)N[C@@H]2O[C@H](CO)[C@@H](O)[C@H](O)[C@H]2O)cc1")
2.3
>>> reported_result("OC[C@H]1O[C@@H](c2noc(-c3ccc4ccccc4c3)n2)[C@H](O)[C@@H](O)[C@@H]1O")
38
>>> reported_result("O=C(NC(=O)c1ccc(O)cc1)N[C@@H]1O[C@H](CO)[C@@H](O)[C@H](O)[C@H]1O")
6.3
